# System: MDA-N
# ASSAY INFO: NCI tumour cell line growth inhibition, 48 h
Calls of active or inactive are those of the source. Cut-off read from the data, not from the text of the source: active = GI50 up to about 1.1 µM and inactive = higher.
Return exactly one item of yes for active, no for inactive

Query: Hi team, can someone confirm the assay call for "O=C(O)c1ccccc1/N=N\c1c(O)c(S(=O)(=O)O)cc2cc(S(=O)(=O)O)ccc12" ?
Reply: no

---

# Tested on: DMS-114
# ASSAY INFO: NCI tumour cell line growth inhibition, 48 h
The source made the active and inactive calls. No stated cut-off is given here; in the data, active = GI50 up to about 1.1 µM and inactive = higher.
Return exactly one item of active, inactive

Observe how each entry below is paired with its result.
[[record]]
compound = "Cc1cc(-c2c(F)cc3c4nn([C@H]5CC[C@@H](N(C)C)CC5)c(=O)c-4cn(C4CC4)c3c2F)cc(C)n1"
class_assignment = "active"

[[record]]
compound = "NN/C(Cc1ccccc1)=N\\NO"
class_assignment = "inactive"

[[record]]
compound = "CCCCCCCCCCCCCCCC(=O)OCC1OC(n2cc(F)c(=O)[nH]c2=O)C(NC(=O)N(CCCl)N=O)C(O)C1O (stereo not given)"
class_assignment = "inactive"

[[record]]
compound = "COc1cc2ccc1NC(=O)N1CCN(CC1)C(=O)Nc1ccc(cc1OC)-c1ccc(c(OC)c1)NC(=O)N1CCN(CC1)C(=O)Nc1ccc-2cc1OC"
class_assignment = "inactive"

[[record]]
compound = "O=C(CC1(O)C(=O)Nc2c(Cl)cc(Cl)cc21)c1ccccc1 (stereo not given)"
class_assignment = "inactive"

[[record]]
compound = "COC(=O)c1c(OC(=O)c2ccccc2)noc1CC(=O)OC1C=CCCC1 (stereo not given)"
class_assignment = "inactive"

[[record]]
compound = "CC1(CO)OC1COCc1ccccc1 (stereo not given)"
class_assignment = "inactive"

[[record]]
compound = "COc1ccc(C2Oc3c(cc(O)c(OC)c3C)[C@@H]2C)cc1OC (stereo not given in full)"
class_assignment = "inactive"


Query: Hi team, can someone confirm the assay call for CC(=O)C(O)N1C(=O)C=CC1=O (stereo not given) ?
Reply: inactive

Query: Hi team, can someone confirm the assay call for "Cc1ccn2c(c1)nc1nc3ccccc3nc12" ?
Reply: inactive

---

# System: OVCAR-5
# ASSAY INFO: NCI tumour cell line growth inhibition, 48 h
The source made the active and inactive calls. Rule as the data show it: active = GI50 up to about 1.1 µM and inactive = higher.
PARAMETER: GI50

Solved cases below.
[[record]]
compound = "CC(=O)Nc1ccccc1-c1cnc2ccccc2n1"
result = "> 100 µM (inactive)"

[[record]]
compound = "Cc1ccc(C(=O)NCc2ccccc2)cc1/N=N/N(C)C"
result = "> 100 µM (inactive)"

[[record]]
compound = "COc1cc(C(=O)N(C(=O)N2CCCCC2)c2ccccc2)cc(OC)c1OC"
result = "> 100 µM (inactive)"

[[record]]
compound = "CC(C)(C)OC(=O)N1CCC(C(=O)O)CC1"
result = "> 100 µM (inactive)"

[[record]]
compound = "Cn1c(=O)c2nc(N3CCOCC3)cnc2n(C)c1=O"
result = "> 100 µM (inactive)"


Query: Give GI50 for the following compound: CCOC(=O)/C=C(/C(=O)OCC)n1c(=O)c(C)cn(C2CC(N=[N+]=[N-])C(CO)O2)c1=O (stereo unspecified)
Reply: > 100 µM (inactive)

Query: Give GI50 for the following compound: CC1(C)CC2=NC(SSC3=C(C#N)C(c4ccc(Br)cc4)C4=C(O)CC(C)(C)CC4=N3)=C(C#N)C(c3ccc(Br)cc3)C2=C(O)C1 (stereo unspecified)
Reply: > 100 µM (inactive)

Query: Give GI50 for the following compound: CC(=O)N1c2ccccc2C(C)C1c1[nH]c2ccccc2c1C (stereo unspecified)
Reply: 14.9 µM (inactive)

Query: Give GI50 for the following compound: "C=CCCCCCCCCC(=O)NS(=O)(=O)c1ccccc1"
Reply: > 100 µM (inactive)

Query: Give GI50 for the following compound: OC1(c2ccccc2)C2CCN(CC2)C1CN1CCOCC1 (stereo unspecified)
Reply: > 100 µM (inactive)

Query: Give GI50 for the following compound: "O=c1[nH]c2ccc(Cl)cc2c2oc(-c3ccccc3)nc12"
Reply: 52.1 µM (inactive)
